Target: UniProt Q60631
Assay: In vitro inhibitory activity against Shc/Grb2 interactions in B104-1-1 cells at 5 uM
Type: functional, cell-based
measured.metric: inhibition (%)
Respond with the bare value in %.

// solved cases for inhibition follow
| compound | readout.units | inhibition |
| --- | --- | --- |
| CC[C@@H](C)[C@H]1NC(=O)[C@@H](NC(=O)c2c3nc4c(C(=O)N[C@@H]5C(=O)N[C@H]([C@H](C)CC)C(=O)N6CCC[C@H]6C(=O)N(C)CC(=O)N[C@@H](C(C)C)C(=O)O[C@@H]5C)ccc(C)c4oc-3c(C)c(=O)c2N)[C@@H](C)OC(=O)[C@H](C(C)C)NC(=O)CN(C)C(=O)[C@@H]2CCCN2C1=O | % | 40.8 |
| Cc1c2oc3c(C)ccc(C(=O)N[C@@H]4C(=O)N[C@H](C(C)C)C(=O)N5CCC[C@H]5C(=O)N(C)CC(=O)N[C@H](Cc5ccc(O)cc5)C(=O)O[C@@H]4C)c3nc-2c(C(=O)N[C@@H]2C(=O)N[C@H](C(C)C)C(=O)N3CCC[C@H]3C(=O)N(C)CC(=O)N[C@H](Cc3ccc(O)cc3)C(=O)O[C@@H]2C)c(N)c1=O (stereo in doubt; 12) | % | 90.2 |
| Cc1c2oc3c(C)ccc(C(=O)N[C@@H]4C(=O)N[C@H](C(C)C)C(=O)N5CCC[C@H]5C(=O)N(C)CC(=O)N[C@@H](Cc5ccccc5)C(=O)O[C@@H]4C)c3nc-2c(C(=O)N[C@@H]2C(=O)N[C@H](C(C)C)C(=O)N3CCC[C@H]3C(=O)N(C)CC(=O)N[C@@H](Cc3ccccc3)C(=O)O[C@@H]2C)c(N)c1=O | % | 78.8 |
| COc1ccc(C[C@H]2NC(=O)CN(C)C(=O)[C@@H]3CCCN3C(=O)[C@@H](C(C)C)NC(=O)[C@@H](NC(=O)c3c4nc5c(C(=O)N[C@@H]6C(=O)N[C@H](C(C)C)C(=O)N7CCC[C@H]7C(=O)N(C)CC(=O)N[C@H](Cc7ccc(OC)cc7)C(=O)O[C@@H]6C)ccc(C)c5oc-4c(C)c(=O)c3N)[C@@H](C)OC2=O)cc1 | % | 73 |

With those in mind, consider the next compound.
Query: // lookup inhibition for Cc1c2oc3c(C)ccc(C(=O)N[C@@H]4C(=O)N[C@H](C(C)C)C(=O)N5CCC[C@H]5C(=O)N(C)CC(=O)N[C@H](Cc5ccc(O)cc5)C(=O)O[C@@H]4C)c3nc-2c(C(=O)N[C@@H]2C(=O)N[C@H](C(C)C)C(=O)N3CCC[C@H]3C(=O)N(C)CC(=O)N[C@H](Cc3ccc(O)cc3)C(=O)O[C@@H]2C)c(N)c1=O (stereo in doubt; 5)
Reply: 27.4

----------
Overview of recorded IC50 for various molecules
Target: Growth factor receptor-bound protein 2 (Mus musculus)
Sequence (Q60631 whole entry): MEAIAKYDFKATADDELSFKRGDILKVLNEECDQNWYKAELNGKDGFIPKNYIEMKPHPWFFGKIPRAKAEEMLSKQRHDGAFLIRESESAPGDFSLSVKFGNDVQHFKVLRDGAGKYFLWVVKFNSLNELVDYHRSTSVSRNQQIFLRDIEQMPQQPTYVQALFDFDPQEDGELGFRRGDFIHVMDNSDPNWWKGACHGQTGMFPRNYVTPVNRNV
Test: In vitro binding assay of Shc-derived phosphopeptide to Growth factor receptor bound protein 2 SH2 in B104-1-1 cells was determined
Entry format: amount then unit.

| molecule | measured.metric | endpoint.value |
| --- | --- | --- |
| COc1ccc(C[C@H]2NC(=O)[C@@H](NC(=O)c3c4nc5c(C(=O)N[C@@H]6C(=O)N[C@H](Cc7ccc(OC)cc7)C(=O)N7CCC[C@H]7C(=O)N(C)CC(=O)N[C@@H](C(C)C)C(=O)O[C@@H]6C)ccc(C)c5oc-4c(C)c(=O)c3N)[C@@H](C)OC(=O)[C@H](C(C)C)NC(=O)CN(C)C(=O)[C@@H]3CCCN3C2=O)cc1 | IC50 | 1500 nM |
| Cc1c2oc3c(C)ccc(C(=O)N[C@@H]4C(=O)N[C@H](C(C)C)C(=O)N5CCC[C@H]5C(=O)N(C)CC(=O)N[C@@H](Cc5ccc(O)cc5)C(=O)O[C@@H]4C)c3nc-2c(C(=O)N[C@@H]2C(=O)N[C@H](C(C)C)C(=O)N3CCC[C@H]3C(=O)N(C)CC(=O)N[C@@H](Cc3ccc(O)cc3)C(=O)O[C@@H]2C)c(N)c1=O (stereo in doubt; 10) | IC50 | 800 nM |

Moving on to another molecule below.
Query: Requested read-out IC50, target or system Growth factor receptor-bound protein 2 (Mus musculus), entry "Cc1c2oc3c(C)ccc(C(=O)N[C@@H]4C(=O)N[C@H](C(C)C)C(=O)N5CCC[C@H]5C(=O)N(C)CC(=O)N[C@H](Cc5ccccc5)C(=O)O[C@@H]4C)c3nc-2c(C(=O)N[C@@H]2C(=O)N[C@H](C(C)C)C(=O)N3CCC[C@H]3C(=O)N(C)CC(=O)N[C@H](Cc3ccccc3)C(=O)O[C@@H]2C)c(N)c1=O"
Reply: 900 nM

Data provenance is ChEMBL document CHEMBL1133215.
